Target: murine SR-BI (Mus musculus, UniProt Q61009)
Construct: expressed in transfected cells; host or cells: ldlA-7 (LDL receptor deficient Chinese hamster ovary cells)
Sequence (Q61009 1-509): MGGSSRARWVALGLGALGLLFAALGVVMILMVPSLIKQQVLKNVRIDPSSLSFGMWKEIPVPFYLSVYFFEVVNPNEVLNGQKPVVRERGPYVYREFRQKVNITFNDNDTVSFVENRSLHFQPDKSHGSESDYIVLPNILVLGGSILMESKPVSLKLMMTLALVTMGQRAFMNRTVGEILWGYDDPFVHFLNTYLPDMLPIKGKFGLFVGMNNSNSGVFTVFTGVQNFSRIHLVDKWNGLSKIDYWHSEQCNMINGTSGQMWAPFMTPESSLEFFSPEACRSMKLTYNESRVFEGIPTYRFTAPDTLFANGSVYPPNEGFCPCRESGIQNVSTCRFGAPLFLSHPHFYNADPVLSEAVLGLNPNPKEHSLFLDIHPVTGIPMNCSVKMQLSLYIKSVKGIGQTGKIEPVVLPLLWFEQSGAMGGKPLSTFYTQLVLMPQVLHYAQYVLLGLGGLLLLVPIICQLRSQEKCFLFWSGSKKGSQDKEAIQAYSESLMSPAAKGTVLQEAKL
Assay: Uptake of DiI from DiI-HDL by ldlA[mSR-BI] cells (high throughput screen and concentration dependence)
Format: cell-based
Details: Test 1
Decision: ENDOHDL Test 1 compared against 0.6; not below it gives 1.0, below it gives 0.0.

> print(dat)
                                   compound  labelvalue
1  COc1ccc(COCC(Cl)CN2CCCCC2)cc1OC.Cl (stereo not drawn) [MIT 9952-159]         1.0
2  NC(=S)Nc1ccc2c(c1)Nc1ccccc1CC2 [MIT 9952-175]         0.0
3  CCOC(=O)c1c(NC(=O)c2ccccc2)sc(NC(=O)c2ccccc2)c1C(=O)OCC [MIT 9952-215]         0.0
4  COc1ccccc1NC(=O)c1ccc(OC)c(OC)c1 [MIT 9952-269]         1.0
5  c1ccc(-c2cc3c(ccc4nonc43)[nH]2)cc1 [MIT 9952-262]         0.0
6  O=[N+]([O-])c1ccc(N/N=C(/CS(=O)(=O)c2ccccc2)c2ccccc2)c([N+](=O)[O-])c1 [MIT 9952-200]         1.0
7  CC(=O)c1c(C)n(-c2ccccc2)c2ccc(O)cc12 [MIT 9952-119]         1.0

----------
biological target: murine SR-BI (Mus musculus); construct: expressed in transfected cells; host or cells: ldlA-7 (LDL receptor deficient Chinese hamster ovary cells); test: Uptake of DiI from DiI-HDL by ldlA[mSR-BI] cells (high throughput screen and concentration dependence); type: cell-based; conditions: Test 1
readoutLabel: ENDOHDL Test 1

> print(dat)
                                    compound                          tgt  result
 1  CCCCCOc1ccc(-c2ccc(C(=O)NC(NCc3ccccc3)C(Cl)(Cl)Cl)cc2)cc1 (stereo not shown) [MIT 9952-247]  murine SR-BI (Mus musculus)    0.63
 2  CC(C)(C)c1ccc(C(=O)Nc2ccccc2C(=O)Cl)cc1 [MIT 9952-47]  murine SR-BI (Mus musculus)    1.18
 3  CCOC1=C(C(C)=O)NC(c2ccc(OC)cc2)C(=S)N1 (stereo not shown) [MIT 9952-278]  murine SR-BI (Mus musculus)    0.71
 4  C/C(=N\NC(=O)COc1ccc(I)cc1)c1cccs1 [MIT 9952-254]  murine SR-BI (Mus musculus)    0.69
 5  C=CCN(CC=C)C(=O)Nc1ccccc1 [MIT 9952-251]  murine SR-BI (Mus musculus)    0.52
 6  NC(=O)N/N=C/c1ccc(-c2ccc([N+](=O)[O-])cc2)o1 [MIT 9952-126]  murine SR-BI (Mus musculus)    0.55
 7  O=C(N/N=C/c1ccc(O)cc1)C1CC1(c1ccccc1)c1ccccc1 (stereo not shown) [MIT 9952-87]  murine SR-BI (Mus musculus)    0.67
 8  Cc1nn(-c2ccccc2)c(Cl)c1/N=N/c1ccccc1 [MIT 9952-138]  murine SR-BI (Mus musculus)    0.54
 9  CCN(CC)C(=O)N1CCN(c2ccc(Nc3ccnc4cc5ccccc5cc34)cc2)CC1 [MIT 9952-141]  murine SR-BI (Mus musculus)    0.63
10  O=C1CC(N2CCOCC2)C(=O)N1c1ccc(Br)cc1 (stereo not shown) [MIT 9952-3]  murine SR-BI (Mus musculus)    1.32
11  COc1ccccc1C(=O)NC(Nc1cccc2ccccc12)C(Cl)(Cl)Cl (stereo not shown) [MIT 9952-134]  murine SR-BI (Mus musculus)    0.58
12  O=C(N/N=C\c1cccn1-c1ccc([N+](=O)[O-])cc1)c1ccccc1 [MIT 9952-199]  murine SR-BI (Mus musculus)    0.52
13      Nc1cc2cccnc2c2ncccc12 [MIT 9952-230]  murine SR-BI (Mus musculus)    0.61
14  COc1ccc(C(=O)Nc2ccc(I)cc2)cc1OC [MIT 9952-253]  murine SR-BI (Mus musculus)    0.59
15  C=C(N/N=C(\C)c1ccccc1C(=O)O)c1ccccc1 [MIT 9952-56]  murine SR-BI (Mus musculus)    1.26
16  Cc1cc(=O)oc2cc(OCc3ccccc3)c(OCc3ccccc3)cc12 [MIT 9952-218]  murine SR-BI (Mus musculus)    0.64
17  CC(CC(=O)NCCc1c[nH]c2ccccc12)C(=O)Cl (stereo not shown) [MIT 9952-12]  murine SR-BI (Mus musculus)    1.25
18  Cc1nc(Cl)c(C(c2cc([N+](=O)[O-])ccc2Cl)c2c(Cl)nc(C)nc2Cl)c(Cl)n1 [MIT 9952-22]  murine SR-BI (Mus musculus)    1.27
19  CN(C)c1ccc(C(Cl)(c2ccc(N(C)C)cc2)C2CN3CCC2CC3)cc1.Cl (stereo not shown) [MIT 9952-137]  murine SR-BI (Mus musculus)    1.32
20  C/C(=N\NC(=O)c1ccccc1I)c1ccc(N)cc1 [MIT 9952-6]  murine SR-BI (Mus musculus)    0.52
21  Cc1cc(C)c(NC(=O)C2CCCN2N)c(C)c1 (stereo not shown) [MIT 9952-276]  murine SR-BI (Mus musculus)    0.73
22  O=C(Nc1cccc(Cl)c1)N1CCN(c2ccc([N+](=O)[O-])cc2)CC1 [MIT 9952-256]  murine SR-BI (Mus musculus)    0.65
23      Cl.NCCc1nc2ccccc2[nH]1 [MIT 9952-25]  murine SR-BI (Mus musculus)    1.21
24  Cc1c([N+](=O)[O-])cc(C(=O)Nc2cccc(NC(=O)c3ccccc3)c2)cc1[N+](=O)[O-] [MIT 9952-235]  murine SR-BI (Mus musculus)    0.62
25  Br.CCOC(=O)c1c(CSC(=N)N)n(C)c2cc(Br)c(OC(C)=O)cc12 [MIT 9952-146]  murine SR-BI (Mus musculus)    0.62
26  O=C(Nc1nc(-c2ccccc2)cs1)Nc1ccc(Cl)cc1Cl [MIT 9952-232]  murine SR-BI (Mus musculus)    0.61
27  Cc1nn(-c2ccc([N+](=O)[O-])cc2)c(Cl)c1[N+](=O)[O-] [MIT 9952-103]  murine SR-BI (Mus musculus)    0.56
28  C/C(=N\Nc1ccc([N+](=O)[O-])cc1)c1ccc([N+](=O)[O-])cc1 [MIT 9952-245]  murine SR-BI (Mus musculus)    0.54
29  Brc1ccc2c(c1)OCCSCCOCCOCCSCCO2 [MIT 9952-244]  murine SR-BI (Mus musculus)    0.56
30  Cc1cccc(/C=N/Nc2nc(C)nc(C)n2)c1 [MIT 9952-270]  murine SR-BI (Mus musculus)    0.66
31  O=C(Cc1ccccc1)N/N=C/c1cccn1-c1ccc([N+](=O)[O-])cc1 [MIT 9952-123]  murine SR-BI (Mus musculus)    0.59
32  O=C(Nc1cc(Sc2nc3ccccc3s2)cc([N+](=O)[O-])c1)c1ccc(F)c(F)c1 [MIT 9952-231]  murine SR-BI (Mus musculus)    0.46
33  COc1c(Cl)cc(Cl)cc1C(=O)Nc1ccc(Br)cc1 [MIT 9952-155]  murine SR-BI (Mus musculus)    0.69
34  O=C(Nc1ccc(Oc2ccc(Cl)c3cccnc23)c(Cl)c1)c1ccc([N+](=O)[O-])cc1 [MIT 9952-172]  murine SR-BI (Mus musculus)    0.55
35  Cc1nc(-c2ccc([N+](=O)[O-])cc2)c(C(=O)Nc2ccccc2)s1 [MIT 9952-160]  murine SR-BI (Mus musculus)    0.48
36  O=C(COc1ccc(Cl)cc1)N/N=C/c1ccc(Cl)cc1 [MIT 9952-124]  murine SR-BI (Mus musculus)    1.33
37  O=C(Nc1ccc(Cl)c(Cl)c1)c1ccccc1Br [MIT 9952-268]  murine SR-BI (Mus musculus)    0.59
